- TESTED_SYSTEM: Glutamate [NMDA] receptor
- ASSAY_OVERVIEW: Displacement of [3H]-ifenprodil from NMDA receptor (unknown origin) by scintillation counting method
- Type: protein-complex assay, Homo sapiens
MEASUREMENT_KIND: IC50 (µM)
One number for each entry, in µM.

Please indicate recorded IC50 of CCN1CCc2c(c3ccccc3n2CCC(=O)N2c3ccccc3Sc3ccccc32)C1 measured with Glutamate [NMDA] receptor.
13.4

###

- ASSAY_OVERVIEW: Drug excretion in Alzheimer's disease patient urine at 2 mg/ml, po
- Type: ADME, tissue-based
- ASSAY_CONDITIONS: human, read-out: Drug excretion
MEASUREMENT_KIND: dose excreted (%)
Give bare numbers, in %.

For CC12CC3CC(C)(C1)CC(N)(C3)C2 [MEMANTINE] , write its dose excreted.
48

###

- TESTED_SYSTEM: Beta-secretase 1 (Homo sapiens)
- ASSAY_OVERVIEW: Inhibition of recombinant human BACE-1
MEASUREMENT_KIND: IC50 (nM)
Answers are plain numbers, in nM.

Please indicate recorded IC50 of COc1ccc2[nH]c3nc4c(c(N)c3c2c1)CCCC4 measured with Beta-secretase 1 (Homo sapiens).
2400

###

- TESTED_SYSTEM: Beta-secretase 1 (Homo sapiens, UniProt P56817)
- Sequence (P56817 whole entry): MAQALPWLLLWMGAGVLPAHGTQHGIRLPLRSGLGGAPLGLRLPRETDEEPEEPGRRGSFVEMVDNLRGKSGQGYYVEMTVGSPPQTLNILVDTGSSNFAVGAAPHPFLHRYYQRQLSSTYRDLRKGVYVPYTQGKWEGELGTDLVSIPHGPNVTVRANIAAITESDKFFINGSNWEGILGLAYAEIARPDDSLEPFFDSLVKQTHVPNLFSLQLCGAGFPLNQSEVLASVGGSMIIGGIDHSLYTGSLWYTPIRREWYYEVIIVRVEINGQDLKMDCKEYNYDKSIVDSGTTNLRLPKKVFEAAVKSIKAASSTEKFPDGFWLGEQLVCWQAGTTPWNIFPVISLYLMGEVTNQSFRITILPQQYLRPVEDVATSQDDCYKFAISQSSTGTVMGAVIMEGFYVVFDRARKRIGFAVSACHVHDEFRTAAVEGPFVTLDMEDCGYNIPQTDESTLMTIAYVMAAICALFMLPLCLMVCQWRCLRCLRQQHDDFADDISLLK
- ASSAY_OVERVIEW: Irreversible inhibition of BACE-1 (unknown origin)
MEASUREMENT_KIND: pIC50
One number for each entry, as −log10 of the molar value.

For C#CCN(C)Cc1ccc(O)c2ncccc12 , write its pIC50.
5.80

###

- TESTED_SYSTEM: High affinity 3',5'-cyclic-AMP phosphodiesterase 7A (Homo sapiens)
- Sequence (Q13946 whole entry): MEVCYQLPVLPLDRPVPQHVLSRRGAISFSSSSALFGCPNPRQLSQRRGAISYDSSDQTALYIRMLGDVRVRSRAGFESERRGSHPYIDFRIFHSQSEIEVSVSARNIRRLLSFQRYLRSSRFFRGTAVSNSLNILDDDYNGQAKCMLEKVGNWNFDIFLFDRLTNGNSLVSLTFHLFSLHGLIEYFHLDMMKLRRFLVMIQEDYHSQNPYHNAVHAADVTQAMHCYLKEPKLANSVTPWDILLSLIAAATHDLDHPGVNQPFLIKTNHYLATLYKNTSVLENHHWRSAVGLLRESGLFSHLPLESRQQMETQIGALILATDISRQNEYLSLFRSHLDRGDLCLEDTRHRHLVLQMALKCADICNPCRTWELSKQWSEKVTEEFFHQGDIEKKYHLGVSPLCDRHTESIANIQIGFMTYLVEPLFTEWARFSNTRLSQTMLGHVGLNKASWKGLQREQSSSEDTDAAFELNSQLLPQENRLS
MEASUREMENT_KIND: IC50

For O=C1[C@H]2Cc3c([nH]c4ccccc34)[C@@H](c3ccc4c(c3)OCO4)N2C(=O)CN1CCC1CCN(Cc2ccccc2)CC1 , write its IC50.
> 100 µM

###

- TESTED_SYSTEM: Acetylcholinesterase (Homo sapiens)
- Sequence (P22303 whole entry): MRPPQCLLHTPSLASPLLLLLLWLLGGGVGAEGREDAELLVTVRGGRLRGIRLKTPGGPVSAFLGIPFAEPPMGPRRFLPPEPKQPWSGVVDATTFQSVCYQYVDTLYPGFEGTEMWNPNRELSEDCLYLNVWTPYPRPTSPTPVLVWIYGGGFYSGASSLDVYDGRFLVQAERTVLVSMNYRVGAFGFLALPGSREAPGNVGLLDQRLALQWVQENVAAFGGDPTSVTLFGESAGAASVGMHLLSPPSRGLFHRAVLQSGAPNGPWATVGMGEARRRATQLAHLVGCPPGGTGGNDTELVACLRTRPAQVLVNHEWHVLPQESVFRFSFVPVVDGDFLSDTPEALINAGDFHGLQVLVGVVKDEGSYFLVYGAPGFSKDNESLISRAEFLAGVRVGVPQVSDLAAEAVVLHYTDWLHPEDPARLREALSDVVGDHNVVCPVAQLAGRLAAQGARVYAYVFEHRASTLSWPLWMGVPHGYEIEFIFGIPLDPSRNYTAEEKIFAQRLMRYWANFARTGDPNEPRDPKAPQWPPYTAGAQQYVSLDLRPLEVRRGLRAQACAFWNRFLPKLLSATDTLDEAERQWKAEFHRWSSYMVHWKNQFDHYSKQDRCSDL
- ASSAY_OVERVIEW: Inhibition of AChE (unknown origin)
MEASUREMENT_KIND: IC50 (nM)
Answers are plain numbers, in nM.

[
  {
    "MOLECULE": "Cc1ccc2[nH]c3c(c2c1)CN(CCCCCN1CCc2[nH]c4ccc(C)cc4c2C1)CC3",
    "IC50, nM": 195
  },
  {
    "MOLECULE": "OC(CNCc1cccc(OCc2ccccc2)c1)Cn1cc(Br)c2cc(Br)ccc21 (stereo not drawn)",
    "IC50, nM": 9100
  }
]

For C#CCN(C)Cc1cc2cc(OCCCC3CCN(Cc4ccccc4)CC3)ccc2n1C , write its IC50.
350

###

- TESTED_SYSTEM: UniProt:O42275
- Sequence (O42275 whole entry): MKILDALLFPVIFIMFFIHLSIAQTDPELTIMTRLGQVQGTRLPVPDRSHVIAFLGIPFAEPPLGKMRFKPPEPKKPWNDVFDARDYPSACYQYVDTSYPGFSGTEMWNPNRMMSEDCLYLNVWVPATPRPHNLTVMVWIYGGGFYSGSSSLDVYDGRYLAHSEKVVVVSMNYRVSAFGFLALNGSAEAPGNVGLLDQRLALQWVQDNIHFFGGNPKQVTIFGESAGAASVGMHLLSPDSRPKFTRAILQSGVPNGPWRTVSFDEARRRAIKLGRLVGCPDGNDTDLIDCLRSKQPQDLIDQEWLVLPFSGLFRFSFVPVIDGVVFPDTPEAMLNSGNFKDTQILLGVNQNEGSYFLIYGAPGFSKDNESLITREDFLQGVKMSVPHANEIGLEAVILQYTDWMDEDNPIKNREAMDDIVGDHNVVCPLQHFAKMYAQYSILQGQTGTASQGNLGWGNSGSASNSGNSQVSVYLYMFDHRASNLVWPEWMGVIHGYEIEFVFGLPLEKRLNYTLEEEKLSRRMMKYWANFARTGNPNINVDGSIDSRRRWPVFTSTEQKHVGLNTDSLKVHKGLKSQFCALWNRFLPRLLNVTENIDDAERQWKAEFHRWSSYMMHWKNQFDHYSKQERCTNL
- ASSAY_OVERVIEW: Inhibition of electric eel AChE using acetylthiocholine chloride as substrate preincubated for 15 mins followed by substrate addition
MEASUREMENT_KIND: IC50 (µM)
Answers are plain numbers, in µM.

For COc1ccc(/C=C2\COc3cc(OCCCN4CCCCC4)ccc3C2=O)cc1 , write its IC50.
3.94

###

Below are compounds with their IC50 as measured on Acetylcholinesterase (Rattus norvegicus).
Sequence (P37136 whole entry): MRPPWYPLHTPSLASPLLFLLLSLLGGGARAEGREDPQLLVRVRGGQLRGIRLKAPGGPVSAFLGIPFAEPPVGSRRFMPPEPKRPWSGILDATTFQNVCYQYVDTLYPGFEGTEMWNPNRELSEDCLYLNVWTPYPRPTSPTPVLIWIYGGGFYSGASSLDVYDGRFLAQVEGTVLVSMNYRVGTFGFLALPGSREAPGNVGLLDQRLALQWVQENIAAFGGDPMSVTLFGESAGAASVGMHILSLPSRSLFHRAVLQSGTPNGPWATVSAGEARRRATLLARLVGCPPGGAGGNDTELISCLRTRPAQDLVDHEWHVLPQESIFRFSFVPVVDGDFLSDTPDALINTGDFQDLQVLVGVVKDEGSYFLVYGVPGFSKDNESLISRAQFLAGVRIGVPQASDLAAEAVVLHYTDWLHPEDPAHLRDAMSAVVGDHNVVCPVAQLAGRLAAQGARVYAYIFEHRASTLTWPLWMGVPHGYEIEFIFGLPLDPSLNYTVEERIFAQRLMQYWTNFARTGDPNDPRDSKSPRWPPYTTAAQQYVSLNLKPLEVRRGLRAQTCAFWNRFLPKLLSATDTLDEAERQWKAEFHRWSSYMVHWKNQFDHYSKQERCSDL
Numbers only, in µM.

Give measured IC50 for every item shown.
1. O=C1[C@H]2Cc3c([nH]c4ccccc34)[C@@H](c3ccc4c(c3)OCO4)N2C(=O)CN1CCC1CCN(Cc2ccccc2)CC1
2. CN1CC(=O)N2[C@H](c3ccc4c(c3)OCO4)c3[nH]c4ccccc4c3C[C@@H]2C1=O

0.032
26.2
